- target_under_test: Gal(b1-3)Gal
- experiment_description: glycan array binding signal (z-score within array); higher = stronger binding
- condition_info: glycan notation: IUPAC condensed, linker removed
Only a selection was taken, and the strongest signals are over-represented in it overall.
Property: glycan array binding signal (z-score); scope: individual binders
Hey, just send me the number, nothing else.

Request: If you can, please state the reported glycan array binding signal (z-score) value of CREG (Mus musculus), O88668 (protein) MAARAPELARSLLAALLAPALVALLVSPASGRGGRDHGDWDVDRRLPPLPPREDGPRVARFVTHVSDWGSLATISTIKEVRGWPFADIISISDGPPGEGTGEPYMYLSPLQQAVSDLQENPEATLTMSLAQTVYCRNHGFDPQSPLCVHIMMSGTVTKVNKTEEDYARDSLFVRHPEMKHWPSSHNWFFAKLKISRIWVLDYFGGPKVVTPEEYFNVTLQ .
Response: 0.033

Others:
Request: If you can, please state the reported glycan array binding signal (z-score) value of EUL D1A second (Oryza sativa) (protein) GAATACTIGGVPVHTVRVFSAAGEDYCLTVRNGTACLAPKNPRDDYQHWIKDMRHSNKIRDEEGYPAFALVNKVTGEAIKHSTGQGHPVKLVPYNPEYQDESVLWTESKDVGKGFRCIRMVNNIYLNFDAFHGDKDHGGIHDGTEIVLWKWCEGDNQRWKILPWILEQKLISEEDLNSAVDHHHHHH .
Response: -0.342

Request: Item: CFEM-PPl (Pichia pastoris), F2QPV1 (protein) AVATPPACLLACAAEVVKESSDCDALNNIQCICENEGSAIHACLESTCPDGLSSTALQSFEDVCESVGTEANLDE
Response: 8.35
